# Test system: SNB-75 CNS
# measurementDescription: NCI-60 one-dose screen, 48 h
# statedConditions: 10 µM unless noted
# Description: Growth inhibition of the SNB-75 human tumor cell line is measured as a screen for anti-cancer activity. Cells are grown in 96 well plates and exposed to the test compound for 48 hours. Compounds are tested at a single concentration, which is 10^-5 M for most compounds. The reported endpoint is percent growth (GI% or GIPRCNT), where numbers from 0 - 100% represent growth inhibition, and numbers from -100% - 0 represent cell death. For example, a value of 40 represents 60% growth inhibition. […]
This is part of a sample that, as a whole, favours compounds with a hit. Of some 83,000 tested, about 20% had one in any assay. Activity calls are given as the source filed them. Rule for the calls: active = growth percent below 10; inactive = the rest.
Result category, one only: Yes for active, No for inactive

What outcome does the record of this test show for C/C(Cc1ccc(Cl)cc1)=C(\c1ccc(OCCCN(C)C)cc1)c1ccc(OC(=O)Cc2ccccc2)cc1 ? No

Hi team, can someone confirm the assay call for CCN1C(=O)N(CC)C2C1NN=c1s/c(=C\c3cnc(C)n3C)c(=O)n12 (stereo not drawn) ? Yes

Assay result, entry CCOc1ccc(-n2nc(C(=O)NCc3ccccc3OC)nc2-c2cc(OC)c(OC)c(OC)c2)cc1 — outcome? No

Record request — test call for COc1ccc(C(=O)N2c3ccccc3Sc3ccccc32)c(C(F)(F)F)c1 No

Query: recorded result category for N#Cc1cccc(C2C3=C(COC3=O)N(CCO)c3cc4c(cc32)OCO4)c1 (stereo not drawn) in this test No

Please indicate how the test categorized S=c1nc2oc(-c3ccccc3)c(-c3ccccc3)c2c(/N=C\c2ccco2)[nH]1 . No

Could you please tell me the result logged for COc1ccc(C(=O)c2cc3c(N)c(C(=O)Nc4ccccc4)sc3nc2C)cc1 in this assay? No

Could you check what this test reported for COc1ccc(C(O)c2cc3c(N)c(C(=O)Nc4cccc(Cl)c4C)sc3nc2C)cc1 (stereo not drawn) ? Yes

Call for entry C/C(=N\O)c1ccc(NC(=O)CSc2nnc(-c3cc(-c4ccc(S(C)(=O)=O)cc4)nc4ccccc34)n2-c2ccccc2)cc1 : No

Please indicate how the test categorized CCN1CCN(C(=O)[C@]23CC[C@@H](C)[C@H](C)[C@@H]2C2=CC[C@@H]4[C@@]5(C)C/C(=C/c6cccnc6)C(=O)C(C)(C)[C@@H]5CC[C@@]4(C)[C@]2(C)CC3)CC1 . No

What was the test verdict on COc1ccc2cc(-c3ccnc4c(N=Nc5ccc(Cl)cc5)c(N)nn34)ccc2c1 ? No

Hello, I am checking results. What call was entered for COc1ccc(C[n+]2c3ccccc3n3c4ccc(N)cc4ccc32)c(OC)c1OC ? No

Look up the recorded call for N#Cc1c(-c2ccccc2)nc(SCc2nnc(-c3ccc(Cl)cc3)o2)[nH]c1=O in this test. No

Any idea what this test logged for O=C(N/N=C/c1cc(Cl)ccc1O)c1ccccc1Nc1ccnc(C(F)(F)F)c1 ? No

// param item: Nc1nc2c(c3ncccc13)C(c1cccc(Cl)c1)Cc1ncccc1-2 (stereo not drawn) ; yields the recorded call No

Please state the recorded outcome for this compound: O=C(C1CCCCC1)[C@@H]1[C@]2(C(=O)NC3CCCCC32)[C@@H]2CCCN2[C@@]12C(=O)NC1CCC(Cl)CC12 (stereo partly drawn) Yes

Can you look up the reported call for Cc1ccc(NC(=O)Cn2c(Br)nc3c2c(=O)n(C)c(=O)n3C)cc1 for me? Yes

Name the outcome recorded for O=C1c2cccc3cccc(c23)C(=O)N1C/C=C/c1ccc2c3c(cccc13)C(=O)N(CCO)C2=O in the assay. No

====

# System: HT29 colon
# measurementDescription: NCI-60 one-dose screen, 48 h (100 = growth as untreated, 0 = no growth, -100 = all killed)
# statedConditions: 10 µM unless noted
About 83,000 compounds went through this panel and 20% of them were active in at least one assay; those are over-represented in the sample as a whole.
// assign Y if growth falls strictly below 20%, else N (ties count as N)

Determine if O=C(Cc1cccc(OC(F)(F)F)c1)Nc1ccc(CCCCc2nnc(NC(=O)Cc3ccccn3)s2)nn1 shows growth strictly lower than 20%. N

Determine whether this molecule shows growth lower than 20% (ties excluded): O=C(CSc1nc(-c2ccccc2)cc(=O)[nH]1)Nc1nc(-c2ccccc2)cs1 N

# TODO verify growth < 20% strictly for this molecule: CS(=O)(=O)Nc1cc(-c2ccc3ncc(C#N)c(Nc4ccc(F)c(Cl)c4)c3c2)cnc1Cl Y

Is growth of Cc1ccc(/C=C/C(=O)Nc2ncc(Cc3ccc(F)cc3)s2)o1 strictly below 20%? N

Is it true that growth reported for COC(=O)c1c2c(c(C)[n+]([O-])c1C)C(=O)C(NCc1ccc(OC)cc1)=CC2=O is less than 20%? Y

Strictly below 20% in growth? Nc1ncnc2c1N=C(c1ccc3c(c1)OCO3)CC(c1cccc(Nc3ccnc4cc(C(F)(F)F)ccc34)c1)N2 (centres undefined) N

Decide: growth of Cc1nn(-c2cc(NC3CCC(O)CC3)c3c(=O)[nH]c(CCC(F)(F)F)cc3c2)c2c1C(=O)CC(C)(C)C2 (centres undefined) strictly below 20%? Y

In the record for C=CC(=O)Nc1ccc(Oc2nccc(Nc3nnc(-c4ccc(C)cc4)s3)n2)cc1 , is growth less than 20%? N

====

# Tested on: HCT-15 colon
# measurementDescription: NCI-60 one-dose screen, 48 h
# statedConditions: 10 µM unless noted
This is part of a sample that, as a whole, favours compounds with a hit. Of some 83,000 tested, about 20% had one in any assay. The source made the active and inactive calls. The calls were made as follows: active = growth percent below 10; inactive = the rest.
Please reply with one of these outcomes: active, inactive

Please let me know the test result on file for Cc1cccc(Oc2ccc(Nc3ncnc4ccc(NC(=O)CN5CCN(C)CC5)cc34)cc2Cl)c1 . active

I'd appreciate the recorded outcome for Nc1nc2c(c3ncccc13)C(c1cccc(Cl)c1)Cc1ncccc1-2 (stereo not drawn) from this test. inactive

Outcome? CCCCNC(=O)Oc1ccc(/C(=C(/C)Cc2ccc(OC)cc2)c2ccc(OCCN3CCCCCC3)cc2)cc1 inactive

Recorded test call requested for N#Cc1nc(-c2ccccc2)oc1S(=O)(=O)N1CCN(c2ccc(F)cc2)CC1 inactive

For this molecule, state the assay outcome: O=C(CSc1nc(-c2ccccc2)cc(=O)[nH]1)Nc1nc(-c2ccccc2)cs1 inactive

I would be grateful if you could indicate the recorded call for C=C1C(=O)O[C@H]2[C@H]1CC/C(COC(=O)/C=C\C(=O)NCc1ccc(Cn3c(=O)sn(CCCCC)c3=O)cc1)=C\CC[C@@]1(C)O[C@@H]21 . inactive

Hello, I am checking results. What call was entered for CS(=O)(=O)c1ccc(NC(=O)c2ccccc2)nc1 ? inactive

Hey, what did the test say about CC1(C)OB(O)c2cc(-c3nc4ccc5[nH]ncc5c4c4c3CCCC4)ccc21 ? inactive

Record request — test call for COc1ccc(/C=C2\CN(C(=O)C(Cl)Cl)C/C(=C\c3ccc(OC)cc3)C2=O)cc1 active

Just curious, what result did COc1ccc(/C(C)=C(/c2ccc(OCCCN(C)C)cc2)c2ccc(OC(=O)c3ccccc3)cc2)cc1 get here? inactive

Could you kindly confirm the outcome this assay logged for COc1ccc(C(=O)N2c3ccccc3Sc3ccccc32)c(C(F)(F)F)c1 ? inactive

Which outcome was entered for the molecule Nc1nc(N)c2c(n1)NC(c1cccc(Nc3ccnc4cc(C(F)(F)F)ccc34)c1)CC(c1ccccc1)=N2 (stereo not drawn) in this test? inactive

Tell me the assay call for COc1ccc(C(=O)/C=C/c2ccc(N3CCCCC3)cc2)cc1OC please. inactive

Per the assay record, what outcome was assigned to C/C(=N\O)c1ccc(NC(=O)CSc2nnc(-c3cc(-c4ccc(S(N)(=O)=O)cc4)nc4ccccc34)n2-c2ccccc2)cc1 ? inactive

Each molecule tested received a call. Report the one for C/C=C(\C)C(=O)N[C@H]1C(O)C[C@]2(C)C3CC[C@@]4(C)C(CC[C@@H]4C(C)N(C)C)C3CCC2C1O (stereo partly drawn) . active

Hi, sorry to bother you, what did the test record for CCOc1c(OC)cc2c(c1O)C(=O)N[C@@H]1[C@@H](O)[C@@H](O)[C@H](O)C[C@@H]21 ? inactive

Hi, sorry to bother you, what did the test record for COc1ccc2c(c1)c(-c1nc(-c3c[nH]c4ncccc34)cs1)cn2CCO ? inactive

Check the results log: what was the call for C#CCn1cnc2cnc(Nc3cccc(NC(=O)C=C)c3)nc21 ? inactive

====

# Tested on: OVCAR-5 ovarian
# measurementDescription: NCI-60 one-dose screen, 48 h (100 = growth as untreated, 0 = no growth, -100 = all killed)
# statedConditions: 10 µM unless noted
# Experimental: Growth inhibition of the OVCAR-5 human tumor cell line is measured as a screen for anti-cancer activity. Cells are grown in 96 well plates and exposed to the test compound for 48 hours. Compounds are tested at a single concentration, which is 10^-5 M for most compounds. The reported endpoint is percent growth (GI% or GIPRCNT), where numbers from 0 - 100% represent growth inhibition, and numbers from -100% - 0 represent cell death. For example, a value of 40 represents 60% growth inhibition. […]
The panel holds about 83,000 compounds, 20% with a hit somewhere; the sample as a whole holds those more often.
resultType: growth (%)
Your answer should be a plain number; it is taken to be in %.

For record O=C(N/N=C\c1ccccc1S(=O)(=O)O)N/N=C/c1ccccc1S(=O)(=O)O the listed growth is 97.1

Looking up Cc1nc2c(=O)nc3s/c(=C\c4ccco4)c(=O)n3c2nc1C , I see its growth listed as 101

Please fill in: growth reported for C=CCN1C(=O)c2cccc3c(N4CCOCC4)ccc(c23)C1=O = 21.4

Input CCN1C(=O)N(CC)C2C1NC(=S)N2/N=C/c1ccc(C(F)(F)F)cc1 (stereo not given) . Output growth: 81.3

Input COc1cc(/C=N/Nc2ccc(Br)cc2)cc(OC)c1OC . Output growth: 68.4

Looking up Nc1nc(N)c2c(n1)NC(c1ccc(Cl)cc1)C1CCc3ccccc3C1=N2 (stereo not given) , I found its growth recorded as 103

response.value for CCc1ccc(CCC(=O)Nc2ncc(Cc3cc(Cl)ccc3Cl)s2)o1 (field: growth) = 24.5

Looking up CCOC(=O)c1cnc2c(N=Nc3ccc(OC)cc3)c(N)nn2c1N , I found its growth recorded as 110

// growth lookup, compound = CCOC(=O)C(=CNc1cnc(Nc2ccc(N3CCOCC3)cc2)nc1Oc1ccc(OC)cc1)C(=O)OCC , result: 71.5

Entry O=S(=O)(NCCCNc1nccc(-c2c(-c3cccc(F)c3)nc3occn23)n1)c1ccc(F)cc1 , growth reported as 89.9

// sample O=C(Cn1nnc2ccccc21)N/N=C/c1c[nH]c2ccccc12 , its growth was 71.9

GET /value?item= O=C(C1=Cc2cc3ccccc3n2Cc2cnnn21)c1ccc(O)cc1 &field=growth returns 91.2

Data point: O=C(Nc1ccccc1O)c1ccc(CNC(=O)c2ccsc2Nc2ccnc(C(F)(F)F)c2)cc1 ; growth = 44.3

Sure, the documented growth for Cc1ccc(NC(=O)Cn2c(Br)nc3c2c(=O)n(C)c(=O)n3C)cc1 is 27.9

Kindly note the recorded growth for Cc1ccc(C(=O)c2ccc(CC(=O)N=Nc3c(O)[nH]c4ccc(Br)cc34)n2C)cc1 , which is 91.7

Form field growth, entry CN1CCN(CCOc2ccc(-c3cnc4c(-c5ccc(F)cc5)cnn4c3)cc2)CC1 : 83.4

According to the records, this compound CCOC(=O)C1=C(C)C(Cl)=N/C1=C\c1[nH]c(Cl)c(C)c1C(=O)OCC displays growth of 124

Input O=C(CCSc1nnc2n(Cc3ccccc3)c(=O)c3c4c(sc3n12)CCCC4)N1CCN(c2ccccc2)CC1 . Output growth: 91.7

In plain terms, CC1=CCC(OC(=O)C(C)(C)CC(O)(C(C)O)C(O)C2(C)C=CC(Cc3ccc(C(C)C)cc3)(C(C)C)CC2)(C(C)C)CC1 (stereo not given) has a documented growth of 94.9

For CC1(C)N=C(N)N=C(N)N1c1cccc(CCc2ccccc2)c1 the compound record lists growth as 49.2
